Values compiled from PubChem BioAssay (EPA / NIEHS).

- Read-out: Lipoprotein lipase (LPL), LPL (gene 4023)
- EXPERIMENTAL_PROTOCOL: LTEA_HepaRG_LPL: Life Technologies and Expression Analysis (LTEA) Assay for Lipoprotein lipase (LPL) using HepaRG (AID 2283515)
- CONDITION_CONTEXT: mRNA level, 48 h; actives raise or lower the signal
Calls of active or inactive are those of the source. The calls were made as follows: active = hit-call score of the fitted dose curve at least 0.9, where 1 is the maximum; inactive = score below 0.9.
// AC50 lookup, one value per entry

COMPOUND | AC50
CCC(C)(NC(=O)c1cc(Cl)c(C)c(Cl)c1)C(=O)CCl (stereo not drawn) | 90.1 µM (active)
O=[N+]([O-])/N=C1\NCCN1Cc1ccc(Cl)nc1 | 33 µM (active)

----------
- EXPERIMENTAL_PROTOCOL: ATG_PPRE_CIS: Attagene CIS-FACTORIAL HepG2 Assay for human Peroxisome Proliferator-activated Response Element (PPRE) (AID 2282958)
- CONDITION_CONTEXT: HepG2 PPRE cis-element reporter, Attagene transcription factor profiling; actives raise or lower the signal
The source made the active and inactive calls. How the source made its calls: active means hit-call score of the fitted dose curve at least 0.9, where 1 is the maximum; inactive means score below 0.9.
Possible outcomes: active, inactive

COMPOUND | ASSIGNED_CATEGORY
CCCN(CCOc1c(Cl)cc(Cl)cc1Cl)C(=O)n1ccnc1 | inactive
COc1cc(OC)nc(NC(=O)NS(=O)(=O)c2cc(NC=O)ccc2C(=O)N(C)C)n1 | inactive
CN1CSC(=S)N(C)C1 | active
O=C(NC(=O)c1c(F)cccc1F)Nc1ccc(OC(F)(F)C(F)OC(F)(F)F)c(Cl)c1 (centres undefined) | active
CC(C)OC(=O)Nc1cccc(Cl)c1 | active
CC1(C)C(C=C(Cl)Cl)C1C(=O)OC(C#N)c1ccc(F)c(Oc2ccccc2)c1 (centres undefined) | active
O=C(Nc1ccccc1)Nc1cnns1 | inactive
ClC1C(Cl)C(Cl)C(Cl)C(Cl)C1Cl (centres undefined) | inactive
CNC(=O)/C=C(\C)OP(=O)(OC)OC | inactive

----------
- Read-out: Plasminogen activator inhibitor-1 (PAI1), SERPINE1 (gene 5054)
- EXPERIMENTAL_PROTOCOL: BSK_hDFCGF_PAI1: BioMAP Diversity Plus: hDFCGF Assay for Plasminogen activator inhibitor-1 (PAI1) Biomarker Activity (AID 2283066)
- CONDITION_CONTEXT: primary human foreskin fibroblasts; actives raise or lower the signal
The source made the active and inactive calls. How the source made its calls: active means hit-call score of the fitted dose curve at least 0.9, where 1 is the maximum; inactive means score below 0.9.
RECORDED_METRIC: AC50

COMPOUND | MEASURED
CNC(=O)Oc1cccc(N=CN(C)C)c1 | inactive
COc1nn(CSP(=S)(OC)OC)c(=O)s1 | inactive
COP(=O)(OC)OC=C(Cl)Cl | inactive
CC[C@H](C)[C@H]1O[C@]2(C=C[C@@H]1C)C[C@@H]1C[C@@H](C/C=C(\C)[C@@H](O[C@H]3C[C@H](OC)[C@@H](O[C@H]4C[C@H](OC)[C@@H](O)[C@H](C)O4)[C@H](C)O3)[C@@H](C)/C=C/C=C3\CO[C@@H]4[C@H](O)C(C)=C[C@@H](C(=O)O1)[C@]34O)O2 (tested in a mixture with another compound) | 6.95 µM (active)

----------
- EXPERIMENTAL_PROTOCOL: APR_HepG2_StressKinase_24hr: Apredica 24-hour HepG2 Assay for Stress Kinase (AID 2282922)
- CONDITION_CONTEXT: HepG2 stress kinase (phospho-c-Jun) imaging, actives raise or lower the signal
Activity calls are given as the source filed them. The calls were made as follows: active = hit-call score of the fitted dose curve at least 0.9, where 1 is the maximum; inactive = score below 0.9.
Labels: active, inactive

COMPOUND | ASSIGNED_CATEGORY
COP(=S)(OC)Oc1ccc(SC)c(C)c1 | inactive
O=C1c2ccccc2C(=O)N1SC(Cl)(Cl)Cl | inactive
CNC(=O)/C=C(\C)OP(=O)(OC)OC | inactive
OCCOc1ccccc1 | inactive
C[C@H]1[C@H](c2ccc(Cl)cc2)SC(=O)N1C(=O)NC1CCCCC1 | inactive
O=[N+]([O-])/N=C1\NCCN1Cc1ccc(Cl)nc1 | inactive
CNC(=O)CSP(=S)(OC)OC | inactive
Clc1ccccc1-c1nnc(-c2ccccc2Cl)nn1 | inactive
[2H]C1([2H])[n+]2ccccc2-c2cccc[n+]2C1([2H])[2H] | inactive
CCOc1nc(NC)nc(NC(=O)NS(=O)(=O)c2ccccc2C(=O)OC)n1 | inactive
Cc1cc(C)nc(NC(=O)NS(=O)(=O)c2ccccc2C(=O)OC2COC2)n1 | inactive
O=S(=O)(O)C(F)(F)C(F)(F)C(F)(F)C(F)(F)C(F)(F)C(F)(F)C(F)(F)C(F)(F)F | inactive
O=C(NC(=O)c1c(F)cccc1F)Nc1ccc(OC(F)(F)C(F)OC(F)(F)F)c(Cl)c1 (stereo unspecified) | inactive
Oc1cc(Cl)ccc1Oc1ccc(Cl)cc1Cl | inactive
CN1CSC(=S)N(C)C1 | active
CC1(c2ccc(Oc3ccccc3)cc2)OC(=O)N(Nc2ccccc2)C1=O (stereo unspecified) | inactive
CC(C)(C)C(O)/C(=C\c1ccc(Cl)cc1Cl)n1cncn1 (stereo unspecified) | inactive
CCS(=O)(=O)c1cccnc1S(=O)(=O)NC(=O)Nc1nc(OC)cc(OC)n1 | inactive
CC(C)N(C(=O)COc1nnc(C(F)(F)F)s1)c1ccc(F)cc1 | inactive
COc1cc(OC)nc(NC(=O)NS(=O)(=O)c2cc(NC=O)ccc2C(=O)N(C)C)n1 | inactive
CCCN(CCOc1c(Cl)cc(Cl)cc1Cl)C(=O)n1ccnc1 | inactive
